Tested on: MS2 coat protein
Assay: apparent KD of MS2 coat protein; designed switch direction (-1 OFF switch, 1 ON switch): -1; higher = weaker reporter binding
Conditions: input ligand: none
property.label: apparent KD of MS2 coat protein (nM)
Answers are plain numbers, in nM.

{"sequence.code": "UGAGCUCUAGUAGGAUAUGUCGGAUAUGUUGUUGAGGUUCACCCAACGACGUCAAUGACAGAAGGACAGAAGGACUCCUGCUCU [pwkr exNG2 2xFMN 1xF5.7] (Eterna round: R96, puzzle: Exclusion NG 2)", "tested.on": "MS2 coat protein", "unit.info": "nM", "apparent KD of MS2 coat protein": 315}
{"sequence.code": "UUCGUACAGCAAAGCUGUACGCGUACAUGAGGAUCACCCAUGUAGGAUAUGGUAGGCAAAGCUUACUAGAAGGAUAGAGUGAUC [Mat - Exclusion NG 3 - Mod of JL - D76] (Eterna round: R96, puzzle: Exclusion NG 3)", "tested.on": "MS2 coat protein", "unit.info": "nM", "apparent KD of MS2 coat protein": 582}

State the recorded apparent KD of MS2 coat protein for every item in the following list.
1. AGUGUGUGGCAGGAUAUUCUAAUGAUUAGGAGGGAAGAAGGGUCUACAUGAGGAUCACCCAUGUAAGCGGUUGA [Ex6 #39] (Eterna round: R97, puzzle: Exclusion 6)
2. GAUCCUUCUGUUAGGAUAUGCUUCGGGCUUCCGCUGCAGAAGGAACAUGAGGAUCACCCAUGUCAAAUAAAAUC [JL-BMX4-4.38 ViennaUCT mod] (Eterna round: R97, puzzle: Brourd's mod of Exclusion 4)
3. AUUAAUUGUCAGAUGGGUGACAUGAGGAUCACCCAUGUCACAAGCUUUUUGCUCGUCUUAUAAUUAACCCAUCUGAC [Stov1/11-A2] (Eterna round: R97, puzzle: Sensor, turn-off variant 1)

Result:
1: 38.3; 2: 17.8; 3: 13.3

---

Tested on: MS2 coat protein
Assay: apparent KD of MS2 coat protein; designed switch direction (-1 OFF switch, 1 ON switch): -1; higher = weaker reporter binding
Settings: input ligand: none
Provide the recorded apparent KD of MS2 coat protein for the entries that follow.
Give bare numbers, in nM.

{"sequence.code": "AGCCCGCAAGGAGGAUAUUAACAUGAGGAUCACCCAUGUAAUCACUAGAUAGCACGGGCGGUUCGUAAGAAGGUCUAGUGGAAU [Eternabot solution 24] (Eterna round: R96, puzzle: Exclusion NG 2)", "tested.on": "MS2 coat protein", "apparent KD of MS2 coat protein (nM)": 33.1}

Provide reported apparent KD of MS2 coat protein for each item, in the same order as listed.
1. AAGAUGUAAGGAUAUGCUGCUCGUCACAAAAGUGAUGAGUAGCAGAAGGUACAUGAGGAUCACCCAUGUAGAGA [Opal 38] (Eterna round: R96, puzzle: Exclusion 4)
2. UUUUAACAUGAGGAUCACCCAUGUGAGGAUAUCGAAAUUUAUAUUAAUAUUUAUAUUACGAGAAGGCACAUUUU [JMF 58] (Eterna round: R96, puzzle: Exclusion 1)
3. GUAAUUAAUGUAGGAUAUGCAAGGCGAACCUAAGCAGAAGGAACAUGAGGAUCACCCAUGUAUGCGGUCUGCGUACAGAUCGCU [salish99_ExNG1_r4_004] (Eterna round: R96, puzzle: Exclusion NG 1)
4. AGCACUAUCACGAAAGUGAUAGUGCAAUAAGCAAGUGAAACAUGAGGAUCACCCAUGUCCUCAAUUGCUCGUCUUAU [Mat - Sensor v2 -ver2- JL mod - D81] (Eterna round: R96, puzzle: Sensor v2, turn-off variant 2)

Result:
1. 22.7
2. 62.9
3. 19.7
4. 51.2

---

Test system: MS2 coat protein
Test: apparent KD of MS2 coat protein, switch ON state; designed switch direction (-1 OFF switch, 1 ON switch): 1; higher = weaker reporter binding
Settings: FMN input: 0 or 200 uM; Eterna round: R93 (includes R88 designs)
property.label: apparent KD of MS2 coat protein

# count of solved cases: 5
{"sequence.code": "UGGAGACAUGAGGAUCACCCAUGUGAGAAGAGGCGAGGAUAUCGAAAGAAAGAAGAGAAACGAGAAGGCGCGAGAG [salish99-SS1-041]", "apparent KD of MS2 coat protein": "42.7 nM"}
{"sequence.code": "AAACCACAUGAGGAUCACCCAUGUAAAAAUAACGCAGGAUAUGGAAACACGAAAGUGAAACCAGAAGGGUGAAAAG [77%, Mat - Mod of Eli, 15]", "apparent KD of MS2 coat protein": "24.5 nM"}
{"sequence.code": "AAAAGACAUGAGGAUCACCCAUGUGAAAACGUAGGAGGAUAUGUCGUGAAAAAAGACUUGACAGAAGGCCUGUGUC [SS1 - 34]", "apparent KD of MS2 coat protein": "28.1 nM"}
{"sequence.code": "AAAAUAUAAAGGAAGGAUAUCCAAAGGACUACAUGAGGAUCACCCAUGUAAAGAAAGAAUAAAUGGGAGAAGGUCCAAAUAAUAA [Designing denovo 32]", "apparent KD of MS2 coat protein": "44 nM"}
{"sequence.code": "AAAUAAAUGACUGAGGAUAUAUCGAUGAAUACAUGAGGAUCACCCAUGUGAUAAUAAAAAGGGUGGUAGAAGGUAGUCAACAAAC [Mod 13 of Pariah 4 by Hyphema in Round 1]", "apparent KD of MS2 coat protein": "95.9 nM"}

We next turn to a different sequence, shown below.
Problem: Dear colleague, please send me the reported apparent KD of MS2 coat protein for AAUAUAUUAUUUAAGGAUAUCAUAGGAAACACAUGAGGAUCACCCAUGUGGGAAACUUGGUCGGGUGAGAAGGUGGAUAAUAUAU [Samwise Clockwise 36 - Jieux - Same State 2] when you can.
Result: 17.4 nM

---

Assign apparent KD of K4 kissing-loop reporter to each entry below.
Tested on: K4 kissing-loop RNA reporter;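 note: bound reporter read as fluorescence of individual clusters on recovered sequencing chips by microscopy, with normalized cluster intensities fitted with a binding model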
Assay: apparent KD of K4 kissing-loop reporter; higher = weaker reporter binding
Details: Eterna round: R107; input ligand: tryptophan 2.4 mM

Consider the reported apparent KD of K4 kissing-loop reporter for these sequences:
{"sequence.code": "AAAACUCAUGGCUUAUAUCCGUGUCUCGAAGGAGCGUACAGCGGUACAGGUAGGUCGCGAGACAUGAGUGAUGUUCAUGUGUAAA [KL-XArg-A6 #analogue]", "property.label": "apparent KD of K4 kissing-loop reporter", "meas.value": "104 nM"}
{"sequence.code": "UCCUAGGCUCGAAAGAGCCUAGGAUUAUCUCAGGAUAUCCGGAAACGGAGAAGGGAGAAACUAGUGAUGUUAGGGAUUCCCUAUU", "property.label": "apparent KD of K4 kissing-loop reporter", "meas.value": "137 nM"}

Items follow; give apparent KD of K4 kissing-loop reporter for each.
1. UGUACCGAGUCAGGAUAUGGCGUCGAAAGACGAAUCCUAGUGAUGUUAGGGAUCUGCGAAAGCAGUCCAGAAGGGACUUGGUACU [FmnBS 26 #SwitchBubble #StaticStem #DoubleMagnetSystem]
2. UGUACCGAGUUAGGAUAUGUCGUCGAAAGACGAAAUGGAGUGAUGUUCCUUAAACUGCGAAAGCAGACAGAAGGAACUUGGUACU [FmnBS 29 U11+A75]
3. UCUGGUAUAUCUGAUACCAGAGUAUAGUAUCAAUUGCAUAUCCGCAGUGAUGUUGCGGAACUCCCUUGGCAGCAGAUCUAUCUCU [Same State Theophylline B GF 26]
4. UGAUAGGACAGAAGGAGCGGUAGUGAUGUUGCCAAAAGAAUAAGGUGUCAAAAGACACCCUGCCAGGUAGGUCGCUGUCCUAUCU
5. UAAUUUAUGUCUUUAAUAUAAUAAUCAGAUACCAGUGAUUAAUGACACCCUUGGCAGCUGUAUAGAGUGAUGUUCUUAUGCUUAA [JR_ExcTheophyA_Sub010]
6. UCGGCAAAGUCGGCCGCCACUCCGGGCCCUAUAAAUGGGCGCAGUGAUGUUGCGGCUAGGCCUCUGAGGACCGGGACUUUGUAGA [Gebive]

Result:
["373 nM", "476 nM", "70 nM", "120 nM", "179 nM", "204 nM"]

---

Test system: MS2 coat protein
Experiment: apparent KD of MS2 coat protein; designed switch direction (-1 OFF switch, 1 ON switch): -1; higher = weaker reporter binding
Details: input ligand: FMN 200 uM
Decide using apparent KD of MS2 coat protein: a value greater than or equal to 30 nM is satisfied, a smaller one is not satisfied.

Known results for sequences:
{"sequence.code": "CAGAAGGGAGGAUAUACAUGACCGUUUUAAUGGUUUUUAGUACAUGAGGAUCACCCAUGUAGAAGGCCCGAACU [EX2 B.23] (Eterna round: R97, puzzle: Exclusion 2)", "tested.on": "MS2 coat protein", "qualitative.label": "satisfied"}
{"sequence.code": "GGAAGCAAGGAAUAACUAAACAUGAGGAUCACCCAUGUAGAGCCCAUGUGCACGCAAAGCGUGCAAGCUCGUCUUAU [AK-miRNA-r3-17] (Eterna round: R97, puzzle: Sensor, turn-off variant 1)", "tested.on": "MS2 coat protein", "qualitative.label": "satisfied"}
{"sequence.code": "AAGAUUAGGAAAGGAUAUAAAGAGAAACAAAGUGCACAUGAGGAUCACCCAUGUACUGACACGCGUUAGAAGGUUCCAGUCCUC [Eternabot solution 40] (Eterna round: R96, puzzle: Exclusion NG 2)", "tested.on": "MS2 coat protein", "qualitative.label": "not satisfied"}
{"sequence.code": "AGUCGAAAGACCAACAUGGACAUGAGGAUCACCCAUGUACAAGCCUUUUGCUCGUCACUAUCGUCAAAAGACGAUAG [Omei Mir Offv1 A1] (Eterna round: R97, puzzle: Sensor, turn-off variant 1)", "tested.on": "MS2 coat protein", "qualitative.label": "satisfied"}

Alright, here's another sequence for you.
Problem: Is apparent KD of MS2 coat protein at least 30 nM? Consider CCAGAAUGUGUCAGGAUAUCGGGUACCAAUAGCUUCGAGAAGGGACAUGAGGAUCACCCAUGUUCUCGGAGAGA [Eternabot (L2) Solution 76] (Eterna round: R97, puzzle: Brourd's mod of Exclusion 4)
Result: not satisfied
